B1: Pistol ribozyme (parent)
chain: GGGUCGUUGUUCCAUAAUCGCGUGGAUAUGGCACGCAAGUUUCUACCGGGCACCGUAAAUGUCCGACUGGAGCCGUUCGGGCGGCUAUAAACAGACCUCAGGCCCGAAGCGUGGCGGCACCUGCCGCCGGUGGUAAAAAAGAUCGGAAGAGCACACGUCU

variants of: B1; experiment: aptazyme ON/OFF ratio, guanine; higher = stronger switching; co-transcriptional cleavage with and without guanine
assayMetric: aptazyme ON/OFF ratio
Form field (numeric): enter value without unit.

> print(dat)
                      mut  observed
1        U7A U8G G9U C12A      1.53
2   U7G U8C G9U U11A C12U      2.56
3  U8C G9C U10A U11C C13A      1.23
4       U8G G9C U10C C13U      1.07
5       U7A U8C U10C U11A      1.16

Looking for the measured aptazyme ON/OFF ratio of U7C U8C C13A , can you help? 1.21

Looking for the measured aptazyme ON/OFF ratio of U7G U8G G9U U10G U11C C12U C13U , can you help? 1.03

Looking for the measured aptazyme ON/OFF ratio of G9A U10G U11G C12G C13G , can you help? 1.22

Taken from the RNAGym collection of RNA variant scans (doi:10.1021/acssynbio.7b00057).
